Molecular target: T1, recombinant human TNFR2-hFc protein (human, UniProt P20333 23-257)
T1 construct: also called hTNFR2-Fc; human TNFR2-Fc; not shown: human Fc
T1 sequence: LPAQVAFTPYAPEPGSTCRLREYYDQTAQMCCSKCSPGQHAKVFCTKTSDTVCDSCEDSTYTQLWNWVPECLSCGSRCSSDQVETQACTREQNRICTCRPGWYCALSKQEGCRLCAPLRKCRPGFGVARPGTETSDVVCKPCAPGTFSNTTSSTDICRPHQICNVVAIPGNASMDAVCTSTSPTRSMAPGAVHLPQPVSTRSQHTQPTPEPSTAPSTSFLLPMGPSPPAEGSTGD
Assay: flow cytometry; TNFR2-Fc binding to scFv displayed on yeast (FIGS. 6A-6C)
# key: entry, value: fold higher affinity (vs parental scFv)
Write the answer as a number in fold, unit excluded.

As a guide, the following entries are already answered.
UC2.3.12 (S4-2 1D10-1G9-1H1) scFv (scFv) scFv: QVQLLESGGGLVQPGDSLRLSCAASGFTFSTYAMSWIRQAPGKGLEWVSIISDGGDATVYADSVKGRFTISRDNNRNTLYLQMNSLRAEDTAVYYCARDGTSAAAFDSWGQGTLVTVSSASSGGSTSGSGKPGSGEGSSGSARDIQMTQSPSSLSASVGDRVTITCQASQDITNFLNWYQQKPGKAPKLLIYDASTLQTGVPSRFSGSGSGTNFTFTISSLQPEDIATYYCQQSDSYPITFGQGTKVEIKR
10
UC1.2 (S4-2 1B5-1A5) scFv (scFv) scFv: QVQLLESGGGLVQPGGSLRLSCAASGFSFTSYAMTWVRQAPGKGLEWVSGISGGGAATFYADSVKGRFTISRDNSKNTLYLQMNSLRAEDTAVYYCARQSQYVGGFDYWGQGTLVTVSSASSGGSTSGSGKPDSGEGSSGSARQSVLTQPPSVSGAPGQRVTISCTGSSSNFGAGYGVHWYQQLPGTAPKLLIHGNTNRPSGVPDRFSGFKSGTSASLAITGLQAEDEADYYCQSYDSSLSGWVFGGGTKLTVLG
10

# fold higher affinity (vs parental scFv) lookup, item UC2.3.3 (S4-2 1D10-1G9-1F10) scFv (scFv, also called UC2.3.3 (monomer)) scFv: QVQLLESGGGLVQPGGSLRLSCAASGFTFSTYAMSWIRQAPGKGLEWVSIISDGGDATVYADSVKGRFTISRDNNRNTLYLQMNSLRAEDTAVYYCARDGTSAAAFDSWGQGTLVTVSSASSGGSTSGSGKPGSGEGSSGSARDIQMTQSPSSLSASVGDRVTITCQASQDITNFLNWYQQKPGKAPKLLIYDASTLQTGVPSRFSGSGSGTDFTFTISSLQPEDIATYYCQQSDSYPITFGQGTKVEIKR
10
